# Read-out: Decorin, DCN (gene 1634)
# assay: BSK_MyoF_Decorin: BioMAP Diversity Plus: MyoF Assay for Decorin Biomarker Activity (AID 2284265)
# condition.label: primary human lung fibroblasts
Activity calls are given as the source filed them. How the source made its calls: active means hit-call score of the fitted dose curve at least 0.9, where 1 is the maximum; inactive means score below 0.9.
The reply should name one outcome from active, inactive

Field: example entries. Status: answers known.
- molecule.smiles: "NCC(F)(F)C(F)(F)C(F)(F)C(F)(F)C(F)(F)C(F)(F)F"
  class.assignment: "inactive"
- molecule.smiles: "O=S(=O)(O)CCC(F)(F)C(F)(F)C(F)(F)C(F)(F)C(F)(F)C(F)(F)C(F)(F)C(F)(F)F"
  class.assignment: "inactive"
- molecule.smiles: "NC(=O)C(F)(F)C(F)(F)C(F)(F)C(F)F"
  class.assignment: "inactive"

Q: Name the outcome recorded for `CN(C(=O)C(F)(F)C(F)(F)C(F)(F)F)[Si](C)(C)C` in the assay.
Ans: inactive

Q: Name the outcome recorded for `O=C(Cl)C(F)(F)C(F)(F)C(F)(F)C(F)(F)C(F)(F)C(F)(F)C(F)(F)F` in the assay.
Ans: inactive

Q: Name the outcome recorded for `O=C(O)CCC(F)(F)C(F)(F)C(F)(F)C(F)(F)C(F)(F)C(F)(F)C(F)(F)F` in the assay.
Ans: inactive

Q: Name the outcome recorded for `OC(O)C(F)(F)C(F)(F)F` in the assay.
Ans: inactive

Q: Name the outcome recorded for `NCC(F)(F)C(F)(F)C(F)(F)C(F)(F)C(F)(F)C(F)(F)C(F)(F)C(F)(F)F` in the assay.
Ans: inactive

Q: Name the outcome recorded for `O=C=NCc1cccc(CN=C=O)c1` in the assay.
Ans: inactive

Q: Name the outcome recorded for `O=C1c2c(O)ccc(Nc3ccc(CCO)cc3)c2C(=O)c2c([N+](=O)[O-])ccc(O)c21` in the assay.
Ans: active

Q: Name the outcome recorded for `CCN(CC)c1ccc2c(c1)Oc1cc(N(CC)CC)ccc1C21OC(=O)c2ccccc21` in the assay.
Ans: inactive

* * *

# Read-out: Vascular endothelial growth factor receptor 2 (Homo sapiens) (UniProt P35968)
# assay: BSK_4H_VEGFRII: BioMAP Diversity Plus: 4H Assay for Vascular endothelial growth factor receptor 2 (VEGFR2) Biomarker Activity (AID 2283031)
# condition.label: primary human endothelial cells (HUVEC); actives raise or lower the signal
Calls of active or inactive are those of the source. Rule for the calls: active = hit-call score of the fitted dose curve at least 0.9, where 1 is the maximum; inactive = score below 0.9.
The reply should name one outcome from active, inactive

Field: example entries. Status: answers known.
- compound: "O=S(=O)(O)CCC(F)(F)C(F)(F)C(F)(F)C(F)(F)F"
  class.assignment: "inactive"
- compound: "NS(=O)(=O)C(F)(F)C(F)(F)C(F)(F)C(F)(F)C(F)(F)C(F)(F)F"
  class.assignment: "inactive"
- compound: "NC(=O)C(F)(F)C(F)(F)C(F)(F)C(F)F"
  class.assignment: "inactive"
- compound: "O=C(O)CCC(F)(F)C(F)(F)C(F)(F)C(F)(F)C(F)(F)C(F)(F)C(F)(F)F"
  class.assignment: "inactive"
- compound: "CCN(CC)c1ccc(N=Nc2ccccc2)cc1"
  class.assignment: "active"

Q: Name the outcome recorded for `O=C(c1ccccc1)c1ccc(O)cc1O` in the assay.
Ans: inactive

Q: Name the outcome recorded for `CCN(CC)c1ccc2c(c1)Oc1cc(N(CC)CC)ccc1C21OC(=O)c2ccccc21` in the assay.
Ans: inactive

Q: Name the outcome recorded for `CN(C(=O)C(F)(F)C(F)(F)C(F)(F)F)[Si](C)(C)C` in the assay.
Ans: inactive

Q: Name the outcome recorded for `NC(=O)C(F)(F)C(F)(F)C(F)(F)F` in the assay.
Ans: inactive

Q: Name the outcome recorded for `Nc1cc([N+](=O)[O-])cc(Cl)c1O` in the assay.
Ans: inactive

Q: Name the outcome recorded for `Cc1cnccn1` in the assay.
Ans: inactive

* * *

# Read-out: Tissue plasminogen activator (tPA), PLAT (gene 5327)
# assay: BSK_BE3C_tPA: BioMAP Diversity Plus: BE3C Assay for Tissue plasminogen activator (tPA) Biomarker Activity (AID 2283041);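 further: tPA level quantified by ELISA one day after compound addition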
# condition.label: primary human bronchial epithelial cells; actives raise or lower the signal
Calls of active or inactive are those of the source. The calls were made as follows: active = hit-call score of the fitted dose curve at least 0.9, where 1 is the maximum; inactive = score below 0.9.
The reply should name one outcome from active, inactive

Field: example entries. Status: answers known.
- compound: "Nc1cc([N+](=O)[O-])cc(Cl)c1O"
  class.assignment: "inactive"
- compound: "OCC(F)(F)C(F)(F)C(F)(F)C(F)(F)C(F)(F)C(F)(F)CO"
  class.assignment: "inactive"
- compound: "CCN(CC)c1ccc2c(c1)Oc1cc(N(CC)CC)ccc1C21OC(=O)c2ccccc21"
  class.assignment: "inactive"
- compound: "OCC(F)(F)C(F)(F)C(F)(F)C(F)(F)C(F)(F)C(F)(F)C(F)(F)C(F)(F)CO"
  class.assignment: "inactive"
- compound: "O=C(O)CCC(F)(F)C(F)(F)C(F)(F)C(F)(F)C(F)(F)C(F)(F)C(F)(F)F"
  class.assignment: "inactive"
- compound: "COC(F)(C(F)F)C(F)(F)F (stereo not given)"
  class.assignment: "inactive"
- compound: "O=C(O)C(F)(F)C(F)(F)C(F)(F)OC(F)(F)F"
  class.assignment: "inactive"
- compound: "O=C=NCc1cccc(CN=C=O)c1"
  class.assignment: "inactive"

Continue with the next compound.
Q: Name the outcome recorded for `NC(=O)C(F)(F)C(F)(F)C(F)(F)F` in the assay.
Ans: inactive

* * *

# assay: BSK_3C_TissueFactor: BioMAP Diversity Plus: 3C Assay for Tissue Factor Biomarker Activity (AID 2282997)
# condition.label: BioMAP 3C HUVEC, tissue factor biomarker readout; actives raise or lower the signal
Activity calls are given as the source filed them. The calls were made as follows: active = hit-call score of the fitted dose curve at least 0.9, where 1 is the maximum; inactive = score below 0.9.
measured.attribute: outcome

- compound: "O=C=NCc1cccc(CN=C=O)c1"
  reported.result: "inactive"
- compound: "O=C(O)C(F)(F)C(F)(F)C(F)(F)C(=O)O"
  reported.result: "inactive"
- compound: "FC(F)(F)C(F)(F)C(F)(F)CC1CO1 (stereo not drawn)"
  reported.result: "inactive"

* * *

# target.of.assay: PGR (gene 5241) (UniProt P06401)
# Sequence (P06401 whole entry, looked up): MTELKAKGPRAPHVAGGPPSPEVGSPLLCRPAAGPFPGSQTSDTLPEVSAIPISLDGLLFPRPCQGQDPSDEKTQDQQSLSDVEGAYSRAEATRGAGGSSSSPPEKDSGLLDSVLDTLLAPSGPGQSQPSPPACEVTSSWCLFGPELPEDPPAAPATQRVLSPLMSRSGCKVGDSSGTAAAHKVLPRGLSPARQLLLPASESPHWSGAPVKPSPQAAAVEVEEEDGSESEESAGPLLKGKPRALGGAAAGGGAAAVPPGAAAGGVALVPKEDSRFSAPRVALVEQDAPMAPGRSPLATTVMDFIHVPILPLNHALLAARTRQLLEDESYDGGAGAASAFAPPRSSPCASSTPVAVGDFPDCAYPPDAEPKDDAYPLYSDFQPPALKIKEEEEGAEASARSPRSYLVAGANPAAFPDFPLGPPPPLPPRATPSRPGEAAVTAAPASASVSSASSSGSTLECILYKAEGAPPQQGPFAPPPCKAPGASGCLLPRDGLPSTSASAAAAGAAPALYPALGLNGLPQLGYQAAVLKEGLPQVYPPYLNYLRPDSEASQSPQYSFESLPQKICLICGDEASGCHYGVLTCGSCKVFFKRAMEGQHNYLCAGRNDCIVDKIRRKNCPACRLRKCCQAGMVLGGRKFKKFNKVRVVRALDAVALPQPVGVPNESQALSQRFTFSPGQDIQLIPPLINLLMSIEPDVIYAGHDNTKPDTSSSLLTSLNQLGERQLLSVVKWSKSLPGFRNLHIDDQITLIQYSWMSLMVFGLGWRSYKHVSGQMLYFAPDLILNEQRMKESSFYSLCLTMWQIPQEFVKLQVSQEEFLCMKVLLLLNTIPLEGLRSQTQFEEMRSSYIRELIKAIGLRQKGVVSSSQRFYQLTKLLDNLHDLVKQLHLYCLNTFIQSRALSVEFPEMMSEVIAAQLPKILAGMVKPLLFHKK
# assay: NVS_NR_hPR: NovaScreen (NVS) Nuclear Receptor Binding Assay for human Progestron Receptor (PR) (AID 2283360);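 further: active means loss of bound radioligand signal versus DMSO baseline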
Records with an inconclusive call do not appear. Active and inactive are the calls of the source. The calls were made as follows: active = hit-call score of the fitted dose curve at least 0.9, where 1 is the maximum; inconclusive = response in the unintended direction; inactive = score below 0.9.
The reply should name one outcome from active, inactive

Q: Name the outcome recorded for `C[C@]12CC[C@H]3C(=CCc4cc(O)ccc43)[C@@H]1CCC2=O` in the assay.
Ans: active

Q: Name the outcome recorded for `Oc1ccc(C2(c3ccc(O)c(C4CCCCC4)c3)CCCCC2)cc1C1CCCCC1` in the assay.
Ans: inactive

Q: Name the outcome recorded for `CCN(CC)c1ccc(C=O)c(O)c1` in the assay.
Ans: active

Q: Name the outcome recorded for `Cc1cnccn1` in the assay.
Ans: inactive

* * *

# Read-out: Vascular cell adhesion molecule 1 (VCAM1), VCAM1 (gene 7412)
# assay: BSK_LPS_VCAM1: BioMAP Diversity Plus: LPS Assay for Vascular cell adhesion molecule 1 (VCAM1) Biomarker Activity (AID 2283086)
# condition.label: primary human HUVEC with PBMC; actives raise or lower the signal
The source made the active and inactive calls. Rule for the calls: active = hit-call score of the fitted dose curve at least 0.9, where 1 is the maximum; inactive = score below 0.9.
The reply should name one outcome from active, inactive

- molecule.smiles: "Cc1cc(O)c(C(C)(C)C)cc1C(C)(C)C"
  class.assignment: "active"
- molecule.smiles: "O=C1c2c(O)ccc(Nc3ccc(CCO)cc3)c2C(=O)c2c([N+](=O)[O-])ccc(O)c21"
  class.assignment: "active"
- molecule.smiles: "Cc1cnccn1"
  class.assignment: "inactive"
- molecule.smiles: "NC(=O)C(F)(F)C(F)(F)C(F)(F)C(F)F"
  class.assignment: "inactive"

Q: Name the outcome recorded for `CCN(CC)c1ccc(N=Nc2ccccc2)cc1` in the assay.
Ans: inactive

Q: Name the outcome recorded for `OCC(F)(F)C(F)(F)C(F)(F)C(F)(F)C(F)(F)C(F)(F)CO` in the assay.
Ans: inactive

* * *

# Read-out: Matrix Metallopeptidase 1 (MMP1), MMP1 (gene 4312)
# assay: BSK_BF4T_MMP1: BioMAP Diversity Plus: BF4T Assay for Matrix Metallopeptidase 1 (MMP1) Biomarker Activity (AID 2284270)
# condition.label: primary human bronchial epithelial cells with fibroblasts
The source made the active and inactive calls. Rule for the calls: active = hit-call score of the fitted dose curve at least 0.9, where 1 is the maximum; inactive = score below 0.9.
measured.attribute: outcome

- compound: "O=S(=O)(O)CCC(F)(F)C(F)(F)C(F)(F)C(F)(F)C(F)(F)C(F)(F)C(F)(F)C(F)(F)F"
  reported.result: "inactive"
- compound: "O=C(F)C1(F)C(F)(F)C(F)(F)C(F)(F)C(F)(F)C1(F)F"
  reported.result: "inactive"
- compound: "CCOC(=O)CC(=O)C(F)(F)C(F)(F)F"
  reported.result: "inactive"
- compound: "FC(F)(F)C(F)(F)C(F)(F)C(F)(F)C(F)(F)C(F)(F)CC[Si](Cl)(Cl)Cl"
  reported.result: "inactive"
- compound: "O=C(O)CCC(F)(F)C(F)(F)C(F)(F)F"
  reported.result: "inactive"

Q: Return outcome (reported value) for this compound: `CNS(=O)(=O)C(F)(F)C(F)(F)C(F)(F)C(F)(F)C(F)(F)C(F)(F)C(F)(F)C(F)(F)F`
Ans: inactive

Q: Return outcome (reported value) for this compound: `O=C(Cl)C(F)(F)C(F)(F)C(F)(F)C(F)(F)C(F)(F)C(F)(F)F`
Ans: inactive

Q: Return outcome (reported value) for this compound: OCC(O)CC(F)(F)C(F)(F)C(F)(F)C(F)(F)F (configuration not stated)
Ans: inactive

Q: Return outcome (reported value) for this compound: `C=C(C)C(=O)OCC(F)(F)C(F)(F)C(F)(F)C(F)F`
Ans: inactive

Q: Return outcome (reported value) for this compound: `O=C(O)C(F)(F)C(F)(F)C(F)(F)OC(F)(F)F`
Ans: inactive

Q: Return outcome (reported value) for this compound: FC(F)(F)C(F)(F)C(F)(F)CC1CO1 (configuration not stated)
Ans: inactive

Q: Return outcome (reported value) for this compound: `CO[Si](C)(CCC(F)(F)C(F)(F)C(F)(F)C(F)(F)C(F)(F)C(F)(F)F)OC`
Ans: inactive

Q: Return outcome (reported value) for this compound: `C=CC(=O)OCCC(F)(F)C(F)(F)C(F)(F)C(F)(F)F`
Ans: inactive

Reference source: PubChem BioAssay (EPA / NIEHS)
